This collection of values is drawn from ChEMBL document CHEMBL4000253.

molecular target: Mushroom tyrosinase (Agaricus bisporus, UniProt O42713+Q00024+C7FF04+C7FF05); assay: Inhibition of mushroom tyrosinase using L-DOPA as substrate assessed as decrease in dopachrome formation preincubated for 10 mins followed by substrate addition by spectrophotometric method
Criterion: IC50 strictly less than 0.4 µM. Met: yes (1). Not met: no (0).

{"mol smiles": "O=c1oc2ccc(O)cc2cc1-c1cccs1", "group label": "no (0)"}
{"mol smiles": "O=c1oc2cc(O)cc(O)c2cc1-c1ccccc1", "group label": "no (0)"}
{"mol smiles": "O=c1oc2cc(O)cc(O)c2cc1-c1ccsc1", "group label": "yes (1)"}
{"mol smiles": "O=c1oc2c(O)c(O)ccc2cc1-c1cc(Br)cs1", "group label": "no (0)"}
{"mol smiles": "O=c1oc2cc(O)cc(O)c2cc1-c1ccc(Br)cc1", "group label": "no (0)"}
{"mol smiles": "O=c1oc2cc(O)ccc2cc1-c1cc(Br)cs1", "group label": "no (0)"}
{"mol smiles": "O=c1oc2c(O)cccc2cc1-c1cc(Br)cs1", "group label": "no (0)"}
{"mol smiles": "O=c1oc2cc(O)cc(O)c2cc1-c1cc(Br)cs1", "group label": "yes (1)"}
{"mol smiles": "O=c1oc2cc(O)ccc2cc1-c1cccs1", "group label": "no (0)"}
{"mol smiles": "COc1ccc2oc(=O)c(-c3cc(Br)cs3)cc2c1", "group label": "no (0)"}
{"mol smiles": "COc1ccc2oc(=O)c(-c3cccs3)cc2c1", "group label": "no (0)"}
{"mol smiles": "O=c1oc2cc(O)cc(O)c2cc1-c1cccs1", "group label": "yes (1)"}
